Provenance of the data: the supplement of paper PMC12636033

Recorded PBM 8-mer E-score, one value per entry.
System: WT Max(13-93) synthetic (M65Nle)
method notes: PBM 8-mer E-score (E-score (rank enrichment, -0.5 to 0.5)); higher = stronger preferential binding
In all, about 33,000 sequences were measured (“E-score (rank enrichment, -0.5 to 0.5)”: median about -0.0075, highest 2% from about 0.23 on). Shown is part of a subset that was picked to be rich in the highest values.

Here is how some sequences turned out for PBM 8-mer E-score.
construct_sequence=ACCCGAAC target_desc="WT Max(13-93) synthetic (M65Nle)" value=-0.0582
construct_sequence=AACGCAGC target_desc="WT Max(13-93) synthetic (M65Nle)" value=-0.1
construct_sequence=ATGTTCAC target_desc="WT Max(13-93) synthetic (M65Nle)" value=-0.109

Query: What reported PBM 8-mer E-score corresponds to GCGTTTAA on WT Max(13-93) synthetic (M65Nle)?
Reply: 0.0231

Query: Request: CAAAAATA
Reply: 0.185

Query: Same again, this time with AGTAACAT
Reply: 0.165

Query: Similarly, TAGGTGCA ?
Reply: 0.0931

Query: Next: GTCCTAAC
Reply: -0.0552
